Source: paper PMC6237158

Experimental Target: PAO in bovine plasma (Bos taurus)
Construct: crude bovine plasma can be used as enzyme source in this assay instead of the purified enzyme; tissue Coesfelder Fleischhandelsgesellschaft, Bernd Grewe (Coesfeld, Germany); host or cells: heparinised bovine blood plasma
Sequence (Q29437 17-762): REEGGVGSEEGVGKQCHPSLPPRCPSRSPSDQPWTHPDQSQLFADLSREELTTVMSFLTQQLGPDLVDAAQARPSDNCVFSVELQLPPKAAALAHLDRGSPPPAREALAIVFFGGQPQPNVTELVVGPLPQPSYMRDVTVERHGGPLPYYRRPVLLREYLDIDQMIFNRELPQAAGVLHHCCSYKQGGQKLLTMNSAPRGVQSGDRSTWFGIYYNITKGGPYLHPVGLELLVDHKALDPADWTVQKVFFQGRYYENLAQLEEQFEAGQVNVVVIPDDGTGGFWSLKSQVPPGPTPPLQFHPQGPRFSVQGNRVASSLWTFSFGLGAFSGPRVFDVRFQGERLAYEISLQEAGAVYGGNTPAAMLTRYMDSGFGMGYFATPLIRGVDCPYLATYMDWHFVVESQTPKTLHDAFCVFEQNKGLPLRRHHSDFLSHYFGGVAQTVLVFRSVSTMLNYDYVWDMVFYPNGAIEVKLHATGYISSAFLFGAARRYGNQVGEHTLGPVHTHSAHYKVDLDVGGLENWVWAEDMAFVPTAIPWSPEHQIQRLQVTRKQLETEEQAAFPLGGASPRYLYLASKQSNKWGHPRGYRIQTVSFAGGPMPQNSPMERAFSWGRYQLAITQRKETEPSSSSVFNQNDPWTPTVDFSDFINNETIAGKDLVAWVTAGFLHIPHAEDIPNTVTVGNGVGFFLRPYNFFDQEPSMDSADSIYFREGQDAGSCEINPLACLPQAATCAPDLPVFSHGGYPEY
Procedure Text: Inhibitor screening without pre-incubation of bovine plasma with the inhibitor (HPLC-UV)
Format: biochemical
Measurement Conditions: substrate 5-(5-phenyl-2H-tetrazol-2-yl)pentan-1-amine (3); without pre-incubation; n = 3
Readout Kind: pIC50
# pIC50 is unitless: minus log10 of the molar concentration; print number only

Recorded result, NNC(=O)Cc1ccc(-c2ccccc2)cc1 [Compound 16, 2-(4-phenylphenyl)acetohydrazide] , pIC50: 5.01

----------
Exercise: state measured IC50 for each of the compounds provided.
Experimental Target: PAO in bovine plasma (Bos taurus)
Construct: crude bovine plasma can be used as enzyme source in this assay instead of the purified enzyme; tissue Coesfelder Fleischhandelsgesellschaft, Bernd Grewe (Coesfeld, Germany); host or cells: heparinised bovine blood plasma
Procedure Text: Inhibitor screening with pre-incubation of bovine plasma with the inhibitor (HPLC-UV)
Type: biochemical
Measurement Conditions: substrate benzylamine; with pre-incubation of enzyme and inhibitor (15 min, 37 °C); n = 3
Respond numerically; units are nM and should not be typed.

Recorded result, NNC(=O)Cc1cccc(-c2ccccc2)c1 [Compound 18, 2-(3-Phenylphenyl)acetohydrazide] , IC50: 240

Recorded result, NNC(=O)Cc1ccc(-c2ccccc2)cc1 [Compound 16, 2-(4-phenylphenyl)acetohydrazide] , IC50: 130

----------
Experimental Target: PAO in bovine plasma (Bos taurus, UniProt Q29437)
Construct: crude bovine plasma can be used as enzyme source in this assay instead of the purified enzyme; tissue Coesfelder Fleischhandelsgesellschaft, Bernd Grewe (Coesfeld, Germany); host or cells: heparinised bovine blood plasma
Procedure Text: Conversion of amine substrates by bovine plasma (HPLC-UV)
Type: biochemical
Measurement Conditions: substrate 250 µM, 6 µL bovine plasma in final volume 100 µL; mean ± SD, n = 3
Exercise: state measured Conversion of substrate, Bovine plasma for each of the compounds provided.
Please provide the amount together with its unit, number first.

Recorded result, `NCCCn1nnc(-c2ccccc2)n1` , Conversion of substrate, Bovine plasma: 5 ± 0.8%

Recorded result, `NCc1ccccc1` , Conversion of substrate, Bovine plasma: 30 ± 2.0%

Recorded result, `NCCCCn1nnc(-c2ccccc2)n1` , Conversion of substrate, Bovine plasma: 66 ± 5.6%

Recorded result, `NCCCCCCn1nnc(-c2ccccc2)n1` , Conversion of substrate, Bovine plasma: 51 ± 1.5%
